biological target: Ephrin type-A receptor 2 (Homo sapiens); settings: at 0.1 µM;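 further: reported values are mean percent inhibition of EPHA2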
quantityName: inhibition (%)

1. Cc1c2ccc(N(C)c3ccnc(Nc4cccc(S(N)(=O)=O)c4)n3)cc2nn1C ... -1.48
2. COc1cccc(-n2ncc3c(N/N=C/c4ccc(C(=O)NCCN(C)C)cc4)ncnc32)c1 ... 1.33
3. Fc1ccc(Nc2nccc(-c3c(-c4ccc(C(F)(F)F)cc4)nn4ncccc34)n2)cc1F ... 2.87
4. NS(=O)(=O)c1ccc(N/N=C2\C(=O)Nc3ccc(C(=O)NCc4ccncc4)cc32)cc1 ... 1.72
5. COc1c(C(N)=O)cc(-c2ccc(Cl)cc2)cc1-c1ccc(S(N)(=O)=O)cc1 ... 1.79

Reference for the values: ChEMBL document CHEMBL1961873
